Target of assay: SARS-COV-2RBD (SARS-CoV-2, UniProt P0DTC2 319-541)
Experiment description: ELISA, RBD coated at 2 μg/mL, 293T transfection supernatant, anti-human IgG-ALP detection
Value kind: binding result

Binder	Value kind	Result
单抗15-CQTS059 (antibody, V domains shown) VH: EVQLVQSGAEVKKPGESLKISCKASGYRFTNYWTVWVRQMPGKGLEWMGIIYPGDSEIRYSPPFQGQVTISADKSISTAYLQWSSLKASDTAMYYCARHPSNFYDSGGDYYAMDVWGQGTPVTVSS VL: QSALTQPASVSGSPGQSITISCTGTSSNVGNYDLVSWYQQHPGKAPKLMIYEVNKRPSGVSDRFSGSKSGNTASLTISGLQAEDEADFYCCSYAGSSSWVFGGGTKVTVL	binding result	binds
单抗20-CQTS065 (antibody, V domains shown) VH: EMQLVESGGGLVQPGGSLRLSCAASGFTFSTYEMNWVRQAPGKGLEWVSYISSSTNSIYYAGSVQGRFTISRGNAKNSLYLQMNSLRAEDTAVYYCARGRDDYGDYRGGDFDYWGQGTLVTVSS VL: QIVLTQSPATLSLSPGERATLSCRASQSVTTYLAWYQQKPGQAPRLLIYDASHRATGIPARFSGSGSGTDFTLTISSLEPEDFAVYYCQQRSNWPPITFGPGTKVEIK	binding result	binds
单抗17-CQTS062 (antibody, V domains shown) VH: EVQLVESGGGLVQPGRSLRLSCAASGFTFDDYAMHWVRQAPGKGLEWVSGISWNSDSIGYADSVKGRFTISRDNAKNSLYLQMNSLRAEDTALYYCAKDLSSGWDLFDYWGQGTLVTVSS VL: SYVLTQPPSVSVAPGKTARITCGGNNIGSKSVHWYQQKPGQAPVLVIYYDSDRPSGIPERFSGSNSGNTATLSISRVEAGDEAGYYCQVWDTSGDPLVFGGGTKLTVL	binding result	binds
